- targetUnderTest: Neuropilin-1 (Homo sapiens)
- assayNotes: NRP-1 b1b2 CendR peptide binding inhibitors, dose response, biochemical, FP and AlphaScreen panel (AID 651650)
- experimentalContext: NRP-1 b1b2 / RPARPAR peptide binding, FP or AlphaScreen; AlphaScreen, mean of runs
Activity calls are given as the source filed them.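 Rule for the calls: active = mean IC50 below 20 µM in each of the two panels, so potent in both; inactive = the rest.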
Choose the fitting class; nothing outside TRUE = active, FALSE = inactive is accepted.

// below: answered compounds
compound	discreteLabel
Clc1nc(-c2ccccn2)nc2scc(-c3ccccc3)c12	FALSE
C[C@@H]1CC=C[C@H]2[C@H]1C(=O)N(Cc1ccccc1)[C@H]2c1ccc(/C=C/c2ccccc2)cc1F	FALSE
O=C(c1ncn(Cc2ccccc2)c1C(=O)N1CCc2ccccc2C1)N1CCc2ccccc2C1	FALSE
CCC1CCCCN1CCCNC(=O)C1CCCN(S(=O)(=O)N2CC(C)CC(C)C2)C1 (stereo not given)	TRUE

query: Hi, sorry to bother you, what did the test record for `Cc1ccc(NC(=O)c2ccc3c(c2)S(=O)(=O)c2ccccc2C3=O)cc1S(=O)(=O)N1CCOCC1` ?
result: FALSE

----------
- targetUnderTest: UniProt O14786
- assayNotes: NRP-1 b1b2 CendR peptide binding inhibitors, dose response, biochemical, FP and AlphaScreen panel (AID 651650)
- experimentalContext: NRP-1 b1b2 / RPARPAR peptide binding, FP or AlphaScreen; FP, mean of runs
Activity calls are given as the source filed them.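 The calls were made as follows: active = mean IC50 below 20 µM in each of the two panels, so potent in both; inactive = the rest.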
readoutKind: IC50

Illustrative cases are given below, each with its answer.
compound	IC50
OCCNc1ncnc2ccc(Br)cc12	> 95 µM (inactive)
O=C(OCn1nnc2ccccc2c1=O)c1ccc(Br)o1	> 95 µM (inactive)
O=c1[nH]c(Nc2ccccn2)cc2ccccc12	> 95 µM (inactive)
CCn1c(SCC(=O)c2ccccc2)nnc1-c1cccs1	> 95 µM (inactive)
O=C(O)CSc1nnc(-c2ccc(Cl)cc2Cl)n1-c1ccc(Cl)cc1	inactive
O=C(Nc1ccc(F)cc1)c1cc(S(=O)(=O)Nc2ccc(F)cc2)cs1	> 95 µM (inactive)

Consider the record given below.
query: Can you look up IC50 on UniProt O14786 for COc1ccc(Cl)cc1NC(=O)C(C)N1CCc2ccccc21 (configuration not stated) ?
result: inactive

----------
- targetUnderTest: Neuropilin-1 (Homo sapiens)
- assayNotes: NRP-1 b1b2 CendR peptide binding inhibitors, dose response, biochemical, FP and AlphaScreen panel (AID 651650)
- experimentalContext: NRP-1 b1b2 / RPARPAR peptide binding, FP or AlphaScreen; AlphaScreen, mean of runs
Active and inactive are the calls of the source.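 Rule for the calls: active = mean IC50 below 20 µM in each of the two panels, so potent in both; inactive = the rest.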
Choose the fitting class; nothing outside TRUE = active, FALSE = inactive is accepted.

// below: answered compounds
compound	discreteLabel
CCCNC(=S)Nc1cccc(C(F)(F)F)c1	FALSE
CCCCCCCN1C(Nc2ccccc2)=NC[C@@H]1Cc1ccccc1	FALSE
COc1ccc(NC(=O)CN2CCN(c3c(C)cc(C)cc3C)CC2)cc1	FALSE
COc1ccc2c(c1)N(C)/C(=C1/SC(=NCc3ccccc3)N(c3ccccc3)C1=O)S2	FALSE
CCn1c(=O)c(C(=O)NCCNCCO)c(O)c2ccccc21	FALSE

query: Hi, sorry to bother you, what did the test record for `O=C(O)c1cc(NCc2ccc(F)cc2)ccc1N1CCOCC1` ?
result: FALSE

query: Hi, sorry to bother you, what did the test record for `COc1ccc(-c2csc(Nc3cccnc3)n2)cc1` ?
result: FALSE

query: Hi, sorry to bother you, what did the test record for COC(=O)C1=C(C)NC(C)=C(C(=O)OC)C1C(=O)OC(C)C(=O)c1ccccc1 (stereo not drawn) ?
result: FALSE

----------
- targetUnderTest: Neuropilin-1 (Homo sapiens) (UniProt O14786)
- Sequence (O14786 whole entry, looked up): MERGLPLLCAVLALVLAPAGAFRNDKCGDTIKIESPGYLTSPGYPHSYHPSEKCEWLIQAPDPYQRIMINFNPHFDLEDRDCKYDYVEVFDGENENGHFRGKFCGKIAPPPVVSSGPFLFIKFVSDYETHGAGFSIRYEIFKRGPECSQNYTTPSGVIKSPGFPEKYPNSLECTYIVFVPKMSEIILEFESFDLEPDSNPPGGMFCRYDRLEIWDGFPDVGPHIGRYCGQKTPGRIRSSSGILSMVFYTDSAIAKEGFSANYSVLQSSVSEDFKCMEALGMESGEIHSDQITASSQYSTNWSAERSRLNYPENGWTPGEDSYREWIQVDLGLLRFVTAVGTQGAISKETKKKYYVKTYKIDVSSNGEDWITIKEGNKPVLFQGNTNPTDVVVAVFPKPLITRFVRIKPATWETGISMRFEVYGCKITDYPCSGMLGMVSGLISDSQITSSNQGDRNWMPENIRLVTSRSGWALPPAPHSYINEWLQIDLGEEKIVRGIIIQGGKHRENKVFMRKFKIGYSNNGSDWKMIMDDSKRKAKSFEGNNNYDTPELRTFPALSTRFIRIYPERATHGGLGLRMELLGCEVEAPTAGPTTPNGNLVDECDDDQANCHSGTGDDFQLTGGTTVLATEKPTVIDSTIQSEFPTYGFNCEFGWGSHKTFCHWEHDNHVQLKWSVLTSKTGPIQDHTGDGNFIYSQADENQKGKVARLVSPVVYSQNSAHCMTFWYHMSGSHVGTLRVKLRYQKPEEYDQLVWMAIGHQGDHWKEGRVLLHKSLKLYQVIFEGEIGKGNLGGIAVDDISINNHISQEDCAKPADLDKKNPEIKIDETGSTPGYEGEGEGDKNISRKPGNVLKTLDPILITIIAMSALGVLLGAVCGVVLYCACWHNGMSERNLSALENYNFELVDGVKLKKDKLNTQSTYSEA
- assayNotes: NRP-1 b1b2 CendR peptide binding inhibitors, dose response, biochemical, FP and AlphaScreen panel (AID 651650)
- experimentalContext: NRP-1 b1b2 / RPARPAR peptide binding, FP or AlphaScreen; AlphaScreen, run 1; individual panel run IC50
Property: IC50; scope: individual compounds

Illustrative cases are given below, each with its answer.
compound	targetUnderTest	readoutKind	result
Cc1nc(Nc2ccc(S(N)(=O)=O)cc2)oc1C	Neuropilin-1 (Homo sapiens) (UniProt O14786)	IC50	73.1 µM
O=c1c2ccccc2nc2n1C(CSc1ccc(F)cc1)CS2 (configuration not stated)	Neuropilin-1 (Homo sapiens) (UniProt O14786)	IC50	11.5 µM
Cn1cnc2cc(NC(=O)c3ccco3)ccc21	Neuropilin-1 (Homo sapiens) (UniProt O14786)	IC50	18.5 µM
Cc1cccc(-c2noc(CSc3ccccc3)n2)c1	Neuropilin-1 (Homo sapiens) (UniProt O14786)	IC50	> 100 µM
O=C(Nc1cccc(C(F)(F)F)c1)C1Cc2c(-c3cccc(F)c3)ccnc2O1 (configuration not stated)	Neuropilin-1 (Homo sapiens) (UniProt O14786)	IC50	> 100 µM
COc1ccccc1C(=O)NC(=O)CSc1nncn1C	Neuropilin-1 (Homo sapiens) (UniProt O14786)	IC50	> 100 µM
CCOC(=O)[C@@H]1[C@H]2COc3ccccc3[C@@H]2N2C(=O)N(c3ccc(Cl)cc3)C(=O)[C@]12C	Neuropilin-1 (Homo sapiens) (UniProt O14786)	IC50	7.51 µM
CCc1ccc(NS(=O)(=O)c2c(C(=O)N3CCCCCC3)c(C)n(C)c2C)cc1	Neuropilin-1 (Homo sapiens) (UniProt O14786)	IC50	> 100 µM

query: Can you look up IC50 on Neuropilin-1 (Homo sapiens) (UniProt O14786) for `CCOC(=O)N1CCN(C(=O)Nc2ccc3nc(C)c(C)nc3c2)CC1` ?
result: > 100 µM

query: Can you look up IC50 on Neuropilin-1 (Homo sapiens) (UniProt O14786) for `c1ccc2c3n(nc2c1)CCCO3` ?
result: > 100 µM

query: Can you look up IC50 on Neuropilin-1 (Homo sapiens) (UniProt O14786) for COc1ccccc1N1CCN(C2CCCN(C(=O)Cn3cccn3)C2)CC1 (configuration not stated) ?
result: > 100 µM

query: Can you look up IC50 on Neuropilin-1 (Homo sapiens) (UniProt O14786) for `Cc1ccccc1/C=C/c1nc2ccccc2c(=O)n1CCc1ccccc1` ?
result: > 100 µM

----------
- targetUnderTest: Neuropilin-1 (Homo sapiens) (UniProt O14786)
- assayNotes: NRP-1 b1b2 CendR peptide binding inhibitors, dose response, biochemical, FP and AlphaScreen panel (AID 651650)
- experimentalContext: NRP-1 b1b2 / RPARPAR peptide binding, FP or AlphaScreen; FP, run 2; individual panel run IC50
pIC50: −log10 of the molar value.
readoutKind: pIC50

molecule	readoutKind	result
CCOC(=O)CNc1ccc2c(c1)OCO2	pIC50	4.41

query: Give its pIC50 value. Item: `CNC(=O)Nc1ccccc1C(=O)NCc1ccccc1`
result: < 4.02

query: Give its pIC50 value. Item: `CNc1nc(-c2ccc3c(c2)CCN3C(=O)c2ccccc2F)cs1`
result: < 4.02

query: Give its pIC50 value. Item: `CCn1c(SCC(=O)c2ccccc2)nnc1-c1cccs1`
result: < 4.02

query: Give its pIC50 value. Item: `CC(=O)Nc1cccc(-c2csc(NCc3ccccc3)n2)c1`
result: < 4.02

query: Give its pIC50 value. Item: CCCN(C(=O)Cn1c(C(F)(F)F)nc2ccccc21)C1CCS(=O)(=O)C1 (stereo unspecified)
result: < 4.02

----------
- targetUnderTest: Neuropilin-1 (Homo sapiens) (UniProt O14786)
- assayNotes: NRP-1 b1b2 CendR peptide binding inhibitors, dose response, biochemical, FP and AlphaScreen panel (AID 651650)
- experimentalContext: NRP-1 b1b2 / RPARPAR peptide binding, FP or AlphaScreen; AlphaScreen, mean of runs
Calls of active or inactive are those of the source.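 The calls were made as follows: active = mean IC50 below 20 µM in each of the two panels, so potent in both; inactive = the rest.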
Choose the fitting class; nothing outside yes (1) (active), no (0) (inactive) is accepted.

molecule	discreteLabel
CCOC(=O)Cc1cnc(NC(=O)NC(C(=O)OCC)(c2ccccc2)C(F)(F)F)s1 (stereo not given)	no (0)
O=C1N[C@H](Cc2c[nH]c3ccccc23)COC(=O)[C@H](Cc2ccc(F)cc2)C/C=C\C[C@H]1CC(=O)N(CCO)Cc1ccccc1	yes (1)
c1ccc2c(CNc3ccc(CNc4ncn[nH]4)cc3)cccc2c1	no (0)

query: Hi, sorry to bother you, what did the test record for `O=c1ccsn1Cc1ccccc1` ?
result: no (0)

query: Hi, sorry to bother you, what did the test record for CCOC(=O)C1=CCN(S(=O)(=O)c2ccccc2Br)C1c1ccccc1 (stereo not given) ?
result: no (0)

query: Hi, sorry to bother you, what did the test record for `CCCCCc1c(-c2cccc(Cl)c2)ncn1CCc1ccccc1OC` ?
result: no (0)

query: Hi, sorry to bother you, what did the test record for `CCOC(=O)c1ccc(N2CCN(C(=O)c3ccccc3)CC2)c(NC(=O)c2ccco2)c1` ?
result: no (0)

----------
- targetUnderTest: Neuropilin-1 (Homo sapiens) (UniProt O14786)
- assayNotes: NRP-1 b1b2 CendR peptide binding inhibitors, dose response, biochemical, FP and AlphaScreen panel (AID 651650)
- experimentalContext: NRP-1 b1b2 / RPARPAR peptide binding, FP or AlphaScreen; AlphaScreen, mean of runs
The source made the active and inactive calls.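 Rule for the calls: active = mean IC50 below 20 µM in each of the two panels, so potent in both; inactive = the rest.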
Choose the fitting class; nothing outside True = active, False = inactive is accepted.

// below: answered compounds
compound	discreteLabel
Cc1ccc(-n2c(-c3ccco3)nc3c(cnn3-c3ccc(C)cc3)c2=O)cc1	False
CC(C)(C)C(=O)COC(=O)c1cc(-c2ccncc2)nc2ccccc12	False
CC(Oc1ccccc1)C(=O)NC1=NCCS1 (stereo unspecified)	False
CC(=O)C(=Cc1ccc(Cl)cc1)C(=O)c1ccccc1	False
FC(F)(F)c1cc(C(F)(F)F)c2ccc(Oc3ccccc3)nc2n1	False
COc1ccc(CN2C(=O)c3ccccc3C2=O)cc1C(=O)Nc1ccccc1N1CCOCC1	False
Cc1nnc(NC(=O)c2ccccc2C(=O)O)s1	True
Nc1cc(S(=O)(=O)O)cc([N+](=O)[O-])c1O	True

query: Hi, sorry to bother you, what did the test record for `CC(C)OC(=O)CSc1nnc(-c2ccccn2)n1-c1ccccc1` ?
result: False

query: Hi, sorry to bother you, what did the test record for `COc1cccc(NC(=O)CSc2nc(O)c(C)c(=O)n2-c2ccc(C)cc2)c1` ?
result: False

query: Hi, sorry to bother you, what did the test record for `c1ccc2c3n(nc2c1)CCCO3` ?
result: False

Origin of the recorded values: PubChem BioAssay AID651650
